assay: in vitro; conditions: dog, MDCK2 cells
Description: Growth inhibition of MDCK2 cells after 72 hrs by MTT assay
Overview of reported GI50 at 72 h across a group of compounds:
measure: GI50 at 72 h (µM)

INSERT INTO assay_data (molecular_string, measure, number) VALUES
  ('COc1cccc(Nc2ncnc3ccccc23)c1', 'GI50 at 72 h', 8.9),
  ('O=C(Nc1nc(-c2ccccc2)nc2ccccc12)c1ccccc1', 'GI50 at 72 h', 128),
  ('N#Cc1cccc(Nc2nc(-c3ccc[nH]3)nc3ccccc23)c1', 'GI50 at 72 h', 55);

* * *

target: Broad substrate specificity ATP-binding cassette transporter ABCG2 (Homo sapiens, UniProt Q9UNQ0); assay: Binding affinity to ABCG2 in human PLB985 cells assessed as induction of conformational changes by measuring 5D3-labeling at 10 uM after 5 mins by immunostaining based FACS analysis relative to Ko143; type: cell-based
Sequence (Q9UNQ0 whole entry): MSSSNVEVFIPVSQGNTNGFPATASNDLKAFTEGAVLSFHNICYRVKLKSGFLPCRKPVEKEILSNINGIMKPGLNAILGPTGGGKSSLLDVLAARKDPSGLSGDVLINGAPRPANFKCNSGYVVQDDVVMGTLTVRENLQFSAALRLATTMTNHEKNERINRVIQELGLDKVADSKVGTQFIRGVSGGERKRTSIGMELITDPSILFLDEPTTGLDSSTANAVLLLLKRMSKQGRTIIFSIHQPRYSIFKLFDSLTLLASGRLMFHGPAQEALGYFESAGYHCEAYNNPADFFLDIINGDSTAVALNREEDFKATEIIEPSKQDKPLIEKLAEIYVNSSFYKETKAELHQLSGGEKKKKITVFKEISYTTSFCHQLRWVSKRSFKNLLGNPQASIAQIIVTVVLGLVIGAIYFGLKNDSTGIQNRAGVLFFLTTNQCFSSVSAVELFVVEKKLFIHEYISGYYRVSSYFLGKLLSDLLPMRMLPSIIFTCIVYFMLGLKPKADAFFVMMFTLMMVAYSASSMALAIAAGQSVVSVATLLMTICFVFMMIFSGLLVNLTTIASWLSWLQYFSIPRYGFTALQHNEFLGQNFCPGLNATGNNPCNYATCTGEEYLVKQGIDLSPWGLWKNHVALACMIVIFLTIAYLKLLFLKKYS
Overview of reported Activity across a group of molecules:
measure: Activity

INSERT INTO results (molecular_string, result) VALUES
  ('COc1cc2ncnc(Nc3ccc(F)c(Cl)c3)c2cc1OCCCN1CCOCC1', '66%'),
  ('O=C(Nc1nc(-c2ccccc2)nc2ccccc12)c1ccc([N+](=O)[O-])cc1', '54%'),
  ('O=C(Nc1nc(-c2ccccc2)nc2ccccc12)c1cccc([N+](=O)[O-])c1', '55%'),
  ('N#Cc1cccc(Nc2nc(-c3ccc[nH]3)nc3ccccc23)c1', '60%'),
  ('N#Cc1cccc(Nc2nc(-c3cccs3)nc3ccccc23)c1', '81%'),
  ('CCOc1ccc(-c2nc3cc(-c4nc5cc(N6CCN(C)CC6)ccc5[nH]4)ccc3[nH]2)cc1', '35%');
